test: Aqueous solubility of the compound in water after 2 days by HPLC analysis; assay type: physicochemical
Item-by-item account of solubility at 48 h
Dear colleague, please return just the value in mg/mL, with no unit written.

// worked examples, solubility at 48 h included
{"columns": ["compound", "solubility at 48 h, mg/mL"],
 "data": [
  ["COc1ccc(-c2oc3cc(O[C@@H]4O[C@H](CO[C@@H]5O[C@@H](C)[C@H](O)[C@@H](O)[C@H]5O)[C@@H](O)[C@H](O)[C@H]4O)cc(O)c3c(=O)c2Cl)cc1O", 231],
  ["COc1ccc(-c2oc3cc(O[C@@H]4O[C@H](CO[C@@H]5O[C@@H](C)[C@H](O)[C@@H](O)[C@H]5O)[C@@H](O)[C@H](O)[C@H]4O)cc(O)c3c(=O)c2O)cc1O", 0.0056],
  ["COc1ccc(-c2oc3cc(O[C@@H]4O[C@H](CO[C@@H]5O[C@@H](C)[C@H](O)[C@@H](O)[C@H]5O)[C@@H](O)[C@H](O)[C@H]4O)cc(O)c3c(=O)c2Br)cc1O", 214],
  ["COc1ccc(-c2oc3cc(O[C@@H]4O[C@H](CO[C@@H]5O[C@@H](C)[C@H](O)[C@@H](O)[C@H]5O)[C@@H](O)[C@H](O)[C@H]4O)cc(O)c3c(=O)c2Br)cc1", 13.8]
]}

Kindly note the recorded solubility at 48 h for COc1ccc(-c2cc(=O)c3c(O)cc(O[C@@H]4O[C@H](CO[C@@H]5O[C@@H](C)[C@H](O)[C@@H](O)[C@H]5O)[C@@H](O)[C@H](O)[C@H]4O)cc3o2)cc1 [ACACIIN] , which is 0.0046

Kindly note the recorded solubility at 48 h for C[C@@H]1O[C@@H](O[C@H]2[C@H](Oc3cc(O)c4c(=O)cc(-c5ccc(O)cc5)oc4c3)O[C@H](CO)[C@@H](O)[C@@H]2O)[C@H](O)[C@H](O)[C@H]1O [RHOIFOLIN] , which is 0.114

====

test: Lipophilicity, log P of the compound; type: physicochemical; details: octanol/water
Hi! Just check whether logP is below 0.7. Below gives MET, equal or above gives NOT MET.

Recorded results for 5 compounds are shown here.
{"columns": ["smiles.structure", "label.value"],
 "data": [
  ["COc1ccc(-c2cc(=O)c3c(O)cc(O[C@@H]4O[C@H](CO[C@@H]5O[C@@H](C)[C@H](O)[C@@H](O)[C@H]5O)[C@@H](O)[C@H](O)[C@H]4O)cc3o2)cc1", "NOT MET"],
  ["COc1ccc(-c2oc3cc(O[C@@H]4O[C@H](CO[C@@H]5O[C@@H](C)[C@H](O)[C@@H](O)[C@H]5O)[C@@H](O)[C@H](O)[C@H]4O)cc(O)c3c(=O)c2O)cc1O", "MET"],
  ["COc1ccc(-c2oc3cc(O[C@@H]4O[C@H](CO[C@@H]5O[C@@H](C)[C@H](O)[C@@H](O)[C@H]5O)[C@@H](O)[C@H](O)[C@H]4O)cc(O)c3c(=O)c2Br)cc1O", "MET"],
  ["C[C@@H]1O[C@@H](O[C@H]2[C@H](Oc3cc(O)c4c(=O)c(Br)c(-c5ccc(O)cc5)oc4c3)O[C@H](CO)[C@@H](O)[C@@H]2O)[C@H](O)[C@H](O)[C@H]1O", "NOT MET"],
  ["COc1ccc(-c2oc3cc(O[C@@H]4O[C@H](CO[C@@H]5O[C@@H](C)[C@H](O)[C@@H](O)[C@H]5O)[C@@H](O)[C@H](O)[C@H]4O)cc(O)c3c(=O)c2Br)cc1", "NOT MET"]
]}

Please examine the following record next.
I wonder whether COc1ccc(-c2oc3cc(O[C@@H]4O[C@H](CO[C@@H]5O[C@@H](C)[C@H](O)[C@@H](O)[C@H]5O)[C@@H](O)[C@H](O)[C@H]4O)cc(O)c3c(=O)c2Cl)cc1O has logP below 0.7. Can you tell?
MET

The origin of these recorded values is ChEMBL document CHEMBL2331163.
